Cited source for all entries: patent US10919903B2

Here, each record is paired with measured EC50 data.
system.under.test: FXR (Homo sapiens)
Sequence (Q96RI1 1-486): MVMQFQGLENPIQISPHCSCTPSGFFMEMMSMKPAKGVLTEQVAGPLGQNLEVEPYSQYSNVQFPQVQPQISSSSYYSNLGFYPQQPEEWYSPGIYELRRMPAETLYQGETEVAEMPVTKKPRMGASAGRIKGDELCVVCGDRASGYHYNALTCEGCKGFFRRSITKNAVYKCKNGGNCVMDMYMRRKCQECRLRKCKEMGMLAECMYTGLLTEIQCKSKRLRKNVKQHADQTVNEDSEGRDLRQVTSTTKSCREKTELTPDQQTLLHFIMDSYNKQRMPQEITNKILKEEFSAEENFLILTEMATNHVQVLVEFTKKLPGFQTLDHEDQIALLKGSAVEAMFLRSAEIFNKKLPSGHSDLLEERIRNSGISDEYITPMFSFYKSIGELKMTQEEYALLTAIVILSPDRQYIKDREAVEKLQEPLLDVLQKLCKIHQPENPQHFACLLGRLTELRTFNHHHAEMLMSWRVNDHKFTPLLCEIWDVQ
method.summary: FXR Transactivation Assay (GAL4 luciferase reporter, pBIND-FXR in HEK293T)
assay.context: HEK293T cells
Experimental: FXR Transactivation Assay pGL4.35 [luc2P/9XGAL4 UAS/Hygro] Steady-Glo™ Luciferase Assay System GW4064 as a positive control • 1. Hek293T cells were plated at 1.1*10^6/ml into a 100 mm dish. • 2. […] Cells were incubated at 37° C. under 5% CO2 atmosphere. • 3. All of compounds were 3-fold serial diluted from 10 mM stock for 10 doses in DMSO. • 4. Transfer compound dilutions into 384 well assay plates using liquid workstation. • 5. […]

Completed entries (count: 2):
- compound: "COc1cc(C(=O)O)cc2sc(N3CCN(Cc4c(-c5c(Cl)cccc5Cl)noc4C(C)C)C(C(C)C)C3)nc12 (racemic) [II-29]"
  data.value: "401 to 5000 nM"
- compound: "COc1cc(C#N)cc2sc(N3CCN(Cc4c(-c5c(Cl)cccc5Cl)noc4C(C)C)CC3)nc12 [IX-01]"
  data.value: "401 to 5000 nM"

Problem: For COc1cc(C(=O)O)cc2sc(N3CCN(Cc4c(C(C)C)cnn4-c4c(Cl)cccc4Cl)CC3)nc12 [II-03] , write its EC50.
Solution: 101 to 400 nM

Problem: Please list EC50 recorded for the compound COc1cc(-c2nnn[nH]2)cc2sc(N3CCN(Cc4c(-c5c(Cl)cccc5Cl)noc4C(C)C)CC3)nc12 [IX-02]
Solution: 401 to 5000 nM

Problem: Specify EC50 for COc1cc(C(=O)O)cc2sc(N3CCN(Cc4c(-c5c(Cl)cccc5Cl)noc4C4CC4)C(C)(C)C3)nc12 [II-23] and stop.
Solution: 401 to 5000 nM

Problem: For the compound COc1cc(C(=O)O)cc2sc(N3CCN(Cc4c(-c5c(Cl)cccc5Cl)noc4C(C)C)C4CCCCC43)nc12 (racemic) [II-39] , give its reported EC50.
Solution: 101 to 400 nM

Problem: Complete the entry with EC50 for COc1cc(C(=O)O)cc2sc(N3CCN(Cc4c(-c5c(Cl)cccc5Cl)noc4C(C)C)C(C)(C)C3)nc12 [II-22]
Solution: 101 to 400 nM
